- ASSAYED_TARGET: M2 muscarinic receptor (Rattus norvegicus, UniProt P10980)
- Construct: Submandibular glands and heart were isolated and placed in ice cold homogenising buffer; from tissue; host or cells: rat heart membrane homogenate
- Sequence (P10980 whole entry): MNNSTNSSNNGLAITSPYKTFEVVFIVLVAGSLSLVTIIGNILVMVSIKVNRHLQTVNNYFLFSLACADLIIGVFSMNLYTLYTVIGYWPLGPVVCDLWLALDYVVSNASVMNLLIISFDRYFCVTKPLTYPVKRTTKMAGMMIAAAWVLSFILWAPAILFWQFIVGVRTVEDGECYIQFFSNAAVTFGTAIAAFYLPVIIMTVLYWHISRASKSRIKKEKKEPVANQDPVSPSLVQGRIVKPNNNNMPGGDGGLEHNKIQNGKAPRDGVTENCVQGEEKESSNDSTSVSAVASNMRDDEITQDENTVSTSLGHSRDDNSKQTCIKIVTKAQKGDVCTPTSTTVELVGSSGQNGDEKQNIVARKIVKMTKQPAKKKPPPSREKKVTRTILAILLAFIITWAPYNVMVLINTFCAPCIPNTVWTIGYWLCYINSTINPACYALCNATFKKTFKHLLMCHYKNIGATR
- TEST_DETAILS: [3H]-N-methylscopolamine radioligand binding assay, rat heart membranes
- SETUP_CONDITIONS: Table III; rat heart, [3H]NMS; read-out: M2 Ki (nm)
PARAMETER_MEASURED: Ki (nM)
Return type: number; implicit unit nM.

Qu. Item under review: C#CCN1CC2C(C1)C2NC(=O)C(O)(c1ccccc1)C1CCCCC1 (stereo not drawn) [Compound No. 35] . Reported Ki?
Ans. 1180

Qu. Item under review: CC(C)=CCCN1C[C@@H]2[C@H](C1)[C@H]2NC(=O)C(O)(c1ccccc1)C1CCCCC1 (stereo partly drawn) [Compound No. 41] . Reported Ki?
Ans. 2940

Qu. Item under review: CC(C)=CCCN1C[C@@H]2[C@H](C1)[C@H]2NC(=O)[C@](O)(c1ccccc1)C1CCCC1 [Compound No. 81] . Reported Ki?
Ans. 564

Qu. Item under review: O=C(N[C@H]1[C@@H]2CN(CCc3ccc4c(c3)OCO4)C[C@@H]21)[C@](O)(c1ccccc1)C1CCCC1 [Compound No. 82] . Reported Ki?
Ans. 646
